Hello, the source for this data is the OligoGym collection, in case you need it.

A collection of sequences and their measured sensor-assay potency score (higher = more potent)
system-under-test: SSX4B; also: reference of the scale not given here
protocol-text: pooled miR-30 sensor sort-seq; sequence = guide strand
test-settings: shRNA
property-measured: sensor-assay potency score (higher = more potent)

>  <sequence-data>
ATTCCTGTGGTTTCGATCGTTA

>  <system-under-test>
SSX4B; also: reference of the scale not given here

>  <measured-value>
-0.284

$$$$
>  <sequence-data>
TAATCTTCTCCAAGGTACTTGG

>  <system-under-test>
SSX4B; also: reference of the scale not given here

>  <measured-value>
-0.322

$$$$
>  <sequence-data>
TGTCTTGTTAATCTTCTCCAAG

>  <system-under-test>
SSX4B; also: reference of the scale not given here

>  <measured-value>
-1.4

$$$$
>  <sequence-data>
TTAATCTTCTCCAAGGTACTTG

>  <system-under-test>
SSX4B; also: reference of the scale not given here

>  <measured-value>
0.0289

$$$$
>  <sequence-data>
TTTAGTCATGACCTCATAGTTT

>  <system-under-test>
SSX4B; also: reference of the scale not given here

>  <measured-value>
-0.792

$$$$
>  <sequence-data>
TTGTTAATCTTCTCCAAGGTAC

>  <system-under-test>
SSX4B; also: reference of the scale not given here

>  <measured-value>
-0.679

$$$$
>  <sequence-data>
TTTAGCTTCATATACACATAGA

>  <system-under-test>
SSX4B; also: reference of the scale not given here

>  <measured-value>
-0.61

$$$$
>  <sequence-data>
TGATATTTGAGCATCATCCCTG

>  <system-under-test>
SSX4B; also: reference of the scale not given here

>  <measured-value>
0.125

$$$$
